Catalogue of EC50 readings, one per entry.
- experimental system: human APJ receptor (Homo sapiens (Human), UniProt P35414)
- Sequence (P35414 whole entry): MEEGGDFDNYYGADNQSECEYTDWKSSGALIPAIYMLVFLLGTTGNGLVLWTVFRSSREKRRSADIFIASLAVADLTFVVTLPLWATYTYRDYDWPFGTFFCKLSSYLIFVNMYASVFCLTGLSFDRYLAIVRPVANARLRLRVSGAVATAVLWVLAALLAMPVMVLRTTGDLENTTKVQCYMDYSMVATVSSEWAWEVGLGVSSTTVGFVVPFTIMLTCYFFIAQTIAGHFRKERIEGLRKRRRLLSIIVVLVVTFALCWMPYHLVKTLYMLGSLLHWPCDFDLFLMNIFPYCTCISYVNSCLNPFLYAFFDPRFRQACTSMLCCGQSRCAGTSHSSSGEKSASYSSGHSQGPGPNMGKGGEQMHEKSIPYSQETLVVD
- assay method text: biochemical
- Assay type: biochemical
- particulars: [35S]GTPγS binding, membranes from CHO cells stably expressing human APJ receptor; read-out: Activity hAPJ SPA EC50 IP
Answer format: numeric, nM implied, no suffix.

[
  {
    "chem smiles": "COc1ncnc(OC)c1-n1c(CC(C)C)nnc1NS(=O)(=O)[C@@H](C)[C@H](OC)c1ncc(Cl)cn1",
    "experimental system": "human APJ receptor (Homo sapiens (Human), UniProt P35414)",
    "numeric result": 7.6
  }
]

Input: Fill in the blank: the reported EC50 of COc1cccc(OC)c1-n1c(CN2CCCCCC2=O)nnc1NS(=O)(=O)[C@@H](C)[C@H](OC)c1ncc(C)cn1 is ____.
Output: 650

Input: Fill in the blank: the reported EC50 of COCCc1nnc(NS(=O)(=O)[C@@H](C)[C@H](C)c2ncc(Cl)cn2)n1-c1c(OC)cccc1OC is ____.
Output: 10

Input: Fill in the blank: the reported EC50 of COc1ncnc(OC)c1-n1c(CC2CCCC2)nnc1NS(=O)(=O)[C@@H](C)[C@H](OC)c1ncc(Cl)cn1 is ____.
Output: 4.5

Input: Fill in the blank: the reported EC50 of COc1cccc(OC)c1-n1c(CCN2CCN(C)CC2)nnc1NS(=O)(=O)[C@@H](C)[C@H](OC)c1ncc(C)cn1 is ____.
Output: 54
